tested on: Acinetobacter baumannii P53; test: microbe, parasite or virus in culture; assay type: cell-based; conditions: Table S11; LB broth, 37 °C, 16 h, n = 2
Numbered stars: 1 amine (or outer) side, 2 acyl side, 3 side chain; on linkers, the order of the positions; unused ones are H or OH. Bridge positions count the residues as written; N and C are the ends. Square brackets hold non-standard residues; d marks the D form. Peptide text beside a SMILES is read from it. * marks the point of attachment. X3 = CCCCC[C@H](CC(=O)[*:1])O[*:2]; Myristoyl = CCCCCCCCCCCCCC(=O)*; dOrn = NCCC[C@@H](N)C(=O)O; Orn = NCCC[C@H](N)C(=O)O; Dab = NCC[C@H](N)C(=O)O; Dap = NC[C@H](N)C(=O)O
The compounds listed here are annotated with their MIC Acinetobacter baumannii P53.

Illustrative cases are given below, each with its answer.
COMPOUND	MIC Acinetobacter baumannii P53
CCCCC[C@@H]1CC(=O)N[C@@H](CN)C(=O)N[C@@H](Cc2ccccc2)C(=O)N[C@@H](CCN)C(=O)N[C@@H]([C@@H](C)O)C(=O)N[C@H](Cc2ccccc2)C(=O)N[C@@H](CN)C(=O)N[C@H](CC(C)C)C(=O)N[C@@H](C(C)C)C(=O)N[C@@H](CC(=O)O)C(=O)O1 [synAQU3-cFA] ([Dap]F[Dab]T[dF][Dap][dL]VD; linker N-C via X3)	> 64 µg/mL
CCCCCCCCCCCCCC(=O)N[C@@H](CCCN)C(=O)N[C@H](Cc1ccc(O)cc1)C(=O)N[C@@H](C(=O)N[C@@H](C(=O)N[C@H](CCCN)C(=O)N[C@@H](CCCN)C(=O)N[C@@H](C(=O)N[C@H](C(=O)N[C@@H](CC(C)C)C(=O)N[C@H](CCCN)C(=O)N[C@H](C(=O)N[C@@H](C)C(=O)O)[C@@H](C)O)[C@@H](C)CC)C(C)C)[C@H](C)O)C(C)C [synAQU6-L] (Myristoyl-[Orn][dY][dV][dT][dOrn][Orn][dV]IL[dOrn]TA-OH)	> 64 µg/mL

Proceed to the following item.
Task: Determine its reported MIC Acinetobacter baumannii P53: CCCCCCCCCCCCCC(=O)N[C@@H](CN)C(=O)N[C@H](C(=O)N[C@@H](CC(C)C)C(=O)N[C@@H](CO)C(=O)N[C@@H](CCN)C(=O)N[C@@H](CN)C(=O)N[C@@H](Cc1ccccc1)C(=O)N[C@H](C(=O)N[C@@H](CCCN)C(=O)N[C@@H](CC(N)=O)C(=O)N[C@@H](Cc1ccccc1)C(=O)O)[C@@H](C)CC)[C@@H](C)O [synAQU5-L] (Myristoyl-[Dap]TLS[Dab][Dap]FI[Orn]NF-OH)
Output: 8 µg/mL

----------
Test system: Candida albicans ATCC 64550
Format: cell-based
Settings: ATCC 64550, 16 h
Protocol: All MIC assays were performed two independent times (n = 2) in 96‐well plates using a broth micro‐dilution method. The lowest concentration of that inhibited visible microbial growth was recorded as the MIC value. For fungal strains, overnight cultures were diluted 2000‐fold in YPD broth. 100 µL of diluted cells was mixed with 100 µL of YPD broth containing each peptide ranging from […] 64 to 0.125 µg mL^−1 at 2‐fold serial dilutions.
Bridge positions count the residues as written; N and C are the ends. Square brackets hold non-standard residues; d marks the D form. Peptide text beside a SMILES is read from it. * marks the point of attachment. Myristoyl = CCCCCCCCCCCCCC(=O)*; Orn = NCCC[C@H](N)C(=O)O; Dab = NCC[C@H](N)C(=O)O; Dap = NC[C@H](N)C(=O)O
OUTCOME MEASURE: MIC Candida albicans ATCC 64550

MOLECULE	TARGET ENTITY	MIC Candida albicans ATCC 64550
CCCCCCCCCCCCCC(=O)N[C@@H](CN)C(=O)N[C@H](C(=O)N[C@@H](CC(C)C)C(=O)N[C@@H](CO)C(=O)N[C@@H](CCN)C(=O)N[C@@H](CN)C(=O)N[C@@H](Cc1ccccc1)C(=O)N[C@H](C(=O)N[C@@H](CCCN)C(=O)N[C@@H](CC(N)=O)C(=O)N[C@@H](Cc1ccccc1)C(=O)O)[C@@H](C)CC)[C@@H](C)O [synAQU5-L] (Myristoyl-[Dap]TLS[Dab][Dap]FI[Orn]NF-OH)	Candida albicans ATCC 64550	> 64 µg/mL

Please examine the following record next.
Task: Please report MIC Candida albicans ATCC 64550 with Candida albicans ATCC 64550 for item CCCCCCCCCCCCCC(=O)N[C@@H](Cc1ccccc1)C(=O)N[C@@H](CCCN)C(=O)N[C@H]1CCCNC(=O)CNC(=O)[C@H](CCN)NC(=O)[C@@H](Cc2ccc(O)cc2)NC(=O)[C@H](CC(C)C)NC(=O)[C@H]([C@@H](C)CC)NC(=O)[C@@H](C(C)C)NC1=O [synAQU2-C3] (Myristoyl-F[Orn][Orn][dV]IL[dY][Dab]G; lactam 3-C) .
Output: > 64 µg/mL

----------
Listed here: items and their measured MIC Candida albicans ATCC 64550.
tested on: Candida albicans ATCC 64550; type: cell-based; conditions: ATCC 64550, 16 h
Numbered stars: 1 amine (or outer) side, 2 acyl side, 3 side chain; on linkers, the order of the positions; unused ones are H or OH. Bridge positions count the residues as written; N and C are the ends. Square brackets hold non-standard residues; d marks the D form. Peptide text beside a SMILES is read from it. * marks the point of attachment. X3 = CCCCC[C@H](CC(=O)[*:1])O[*:2]; Myristoyl = CCCCCCCCCCCCCC(=O)*; X2 = NC[C@H](Cc1ccc(O)cc1)N*; dOrn = NCCC[C@@H](N)C(=O)O; X1 = CC(C)[C@H](O)CC(=O)*; Orn = NCCC[C@H](N)C(=O)O; Dab = NCC[C@H](N)C(=O)O; Dap = NC[C@H](N)C(=O)O; βAla = NCCC(=O)O

COMPOUND	OUTCOME MEASURE	RESULT VALUE
CCCCCCCCCCCCCC(=O)N[C@@H](CN)C(=O)N[C@H](C(=O)N[C@@H](CC(C)C)C(=O)N[C@H]1COC(=O)[C@H](Cc2ccccc2)NC(=O)[C@H](CC(N)=O)NC(=O)[C@H](CCCN)NC(=O)[C@H]([C@@H](C)CC)NC(=O)[C@H](Cc2ccccc2)NC(=O)[C@H](CN)NC(=O)[C@H](CCN)NC1=O)[C@@H](C)O [synAQU5-C4] (Myristoyl-[Dap]TLS[Dab][Dap]FI[Orn]NF; ester 4-C)	MIC Candida albicans ATCC 64550	> 64 µg/mL
CCCCCCCCCCCCCC(=O)N[C@@H](CCCN)C(=O)N[C@H](Cc1ccc(O)cc1)C(=O)N[C@@H](C(=O)N[C@@H](C(=O)N[C@H](CCCN)C(=O)N[C@@H](CCCN)C(=O)N[C@@H](C(=O)N[C@H](C(=O)N[C@@H](CC(C)C)C(=O)N[C@H](CCCN)C(=O)N[C@H](C(=O)N[C@@H](C)C(=O)O)[C@@H](C)O)[C@@H](C)CC)C(C)C)[C@H](C)O)C(C)C [synAQU6-L] (Myristoyl-[Orn][dY][dV][dT][dOrn][Orn][dV]IL[dOrn]TA-OH)	MIC Candida albicans ATCC 64550	> 64 µg/mL
CCCCCCCCCCCCCC(=O)N[C@@H](CCCN)C(=O)N[C@H](Cc1ccc(O)cc1)C(=O)N[C@@H](C(=O)N[C@H]1C(=O)N[C@H](CCCN)C(=O)N[C@@H](CCCN)C(=O)N[C@H](C(C)C)C(=O)N[C@@H]([C@@H](C)CC)C(=O)N[C@@H](CC(C)C)C(=O)N[C@H](CCCN)C(=O)N[C@@H]([C@@H](C)O)C(=O)N[C@@H](C)C(=O)O[C@H]1C)C(C)C [synAQU6-C4] (Myristoyl-[Orn][dY][dV][dT][dOrn][Orn][dV]IL[dOrn]TA; ester 4-C)	MIC Candida albicans ATCC 64550	> 64 µg/mL
CC[C@H](C)[C@H](NC(=O)[C@@H](NC(=O)[C@@H](C)NC(=O)[C@H](C)NC(=O)[C@@H](NC(=O)C[C@@H](O)C(C)C)C(C)C)[C@@H](C)CC)C(=O)NCCC(=O)N[C@@H](CC(C)C)C(=O)N[C@H](C)C(=O)N[C@H](C(=O)N[C@H](CN)Cc1ccc(O)cc1)[C@@H](C)CC [synAQU4-L] (X1-VA[dA]II[βAla]L[dA]I-X2)	MIC Candida albicans ATCC 64550	> 64 µg/mL

Task: Report MIC Candida albicans ATCC 64550 for CCCCC[C@@H]1CC(=O)N[C@@H](CN)C(=O)N[C@@H](Cc2ccccc2)C(=O)N[C@@H](CCN)C(=O)N[C@@H]([C@@H](C)O)C(=O)N[C@H](Cc2ccccc2)C(=O)N[C@@H](CN)C(=O)N[C@H](CC(C)C)C(=O)N[C@@H](C(C)C)C(=O)N[C@@H](CC(=O)O)C(=O)O1 [synAQU3-cFA] ([Dap]F[Dab]T[dF][Dap][dL]VD; linker N-C via X3)
Output: 32 µg/mL
